- Tested on: DU-145 prostate
- Experiment Notes: NCI-60 one-dose screen, 48 h
- Study Conditions: 10 µM unless noted
The panel holds about 83,000 compounds, 20% with a hit somewhere; the sample as a whole holds those more often. The source made the active and inactive calls. Rule for the calls: active = growth percent below 10; inactive = the rest.
Hello, when you answer, please use one of the following outcomes: yes (active), no (inactive)

Cn1c2c(c3ccc(Cl)c(Cl)c31)C(C#N)C(C)(C)NC2=O (stereo not drawn)	no

What classification did COc1ccc(Nc2ncccc2/C=C/C(=O)c2cc(OC)c(OC)c(OC)c2)cc1 end up with in this test? yes

What classification did N#CSc1c[nH]c2cccc(/C=C/C(=O)/C=C(O)/C=C/c3cccc4[nH]cc(SC#N)c34)c12 end up with in this test? yes

What classification did C#Cc1cccc(Nc2nc(C)nc3cc(NC(=O)CCl)ccc23)c1 end up with in this test? yes

What classification did CCOC(=O)C1=C(C)C(Cl)=N/C1=C\c1[nH]c(Cl)c(C)c1C(=O)OCC end up with in this test? no

What classification did CO[C@H](C(=O)[C@@H](O)[C@@H](C)O)[C@@H]1Cc2cc3cc(O[C@H]4C[C@@H](O[C@H]5C[C@@H](O)[C@H](O)C(C)O5)[C@H](O)C(C)(O)O4)cc(O)c3c(O)c2C(=O)[C@H]1O[C@H]1C[C@@H](O[C@H]2C[C@@H](O[C@H]3C[C@@H](OC)[C@H](O)C(C)O3)[C@@H](O)C(C)O2)[C@H](O)C(C)O1 (stereo partly drawn) end up with in this test? no

What classification did CCOC(=O)C#Cc1c(C(=O)OCC)nnn1Cc1ccc(C(F)(F)F)cc1 end up with in this test? no

What classification did COc1ccc(/C=C(/C(=O)n2cnnn2)c2cc(OC)c(OC)c(OC)c2)cc1 end up with in this test? no

What classification did O=C(NC(Cc1nnc2n(Cc3ccccc3)c(=O)c3c4c(sc3n12)CCCC4)c1ccccc1)c1ccccc1 (stereo not drawn) end up with in this test? no

What classification did CC(C)(C)n1cc(-c2ccnc(NCCCNS(=O)(=O)c3cccc4ccccc34)c2)c(-c2cccc(F)c2)n1 end up with in this test? no

What classification did CC(=C(c1ccc(OCCN2CCCCC2)cc1)c1ccc(OCCN2CCCCC2)cc1)c1ccc(Cl)cc1 end up with in this test? yes

What classification did N=c1c(S(=O)(=O)c2ccccc2)cc2c(=O)n3ccccc3nc2n1CC1CCCO1 (stereo not drawn) end up with in this test? no

----------
- Test system: MALME-3M melanoma
- Experiment Notes: NCI-60 one-dose screen, 48 h (100 = growth as untreated, 0 = no growth, -100 = all killed)
- Study Conditions: 10 µM unless noted
- Description: Cells are grown in 96 well plates and exposed to the test compound for 48 hours. Compounds are tested at a single concentration, which is 10^-5 M for most compounds. The reported endpoint is percent growth (GI% or GIPRCNT), where numbers from 0 - 100% represent growth inhibition, and numbers from -100% - 0 represent cell death. For example, a value of 40 represents 60% growth inhibition. A value of 0 means no net growth occurred over the course of the experiment. […]
About 83,000 compounds went through this panel and 20% of them were active in at least one assay; those are over-represented in the sample as a whole.
Entries annotated with measured growth
Entry rule: numbers only, all in %.

GET /values?readout=growth&item= COc1cc2nc3sc(C(=O)Nc4ccc(C(=O)OC(C)C)cc4)c(C(=O)Nc4ccc(Cl)cc4C)n3c(=O)c2cc1OC 43.9

GET /values?readout=growth&item= COC(=O)N1CC(Oc2ccccn2)C2CC1c1ccccc1O2 (stereo not drawn) 104

GET /values?readout=growth&item= COc1ccc(CCN(CC(=O)N(CC(N)=O)C2CCC[C@@H]2OCc2ccccc2)C(=O)CN(C(=O)CN(CCc2ccc(Cl)cc2)C(=O)CN(C(=O)CN(C)Cc2ccccc2F)[C@H](C)C2CCCCC2)[C@H](C)C2CCCCC2)cc1OC (stereo partly drawn) 51.7

GET /values?readout=growth&item= O=C(CCCCCCN1CC(=O)N2[C@H](c3ccc(Br)cc3)c3[nH]c4ccccc4c3C[C@@H]2C1=O)NO 20.4

GET /values?readout=growth&item= Cn1cc(-c2csc(-c3cn(CCCN4CCOCC4)c4ccccc34)n2)c2cccnc21 108
